system: experimental endolymphatic hydrops; assay: Endolymphatic hydrops decompression effect: IR-L, IR-S and regression lines in the operated ear; type: in vivo, guinea pigs; conditions: operated side; active agent 2.8 g/kg oral, alone or with additive; perfusion 3 hours after
Metric: IR-L (%) increase ratio of the length of Reissner's membrane
Could you give me the number in %? Just the number is fine.

Below, 4 molecules whose answers are already recorded.
INSERT INTO assay_data (smiles_data, uom, meas_value) VALUES
  ('OCC(O)CO', '%', 37.4),
  ('OC[C@@H](O)[C@@H](O)CO', '%', 23.2),
  ('O[C@@H]1CO[C@H]2[C@@H]1OC[C@@H]2O', '%', 31.3),
  ('O=C[C@H](O)[C@@H](O)[C@H](O)CO', '%', 29.7);

Now for another entry.
Lookup result for OC[C@@H](O)[C@H](O)[C@@H](O)CO ; measured IR-L (%) increase ratio of the length of Reissner's membrane: 48.6
